Compiled notes: published Ki values involving Somatostatin receptor type 5 (Homo sapiens, UniProt P35346).
Numbers only; they are read as nM.

Solved cases (2 shown):
COMPOUND: CC(C)[C@H]1NC(=O)[C@H](CCCCN)NC(=O)[C@@H](Cc2c[nH]c3ccccc23)NC(=O)[C@H](Cc2c[nH]cn2)NC(=O)C(NC(=O)[C@@H](N)Cc2ccccc2F)CSSCC(C(=O)N[C@@H](Cc2ccccc2F)C(N)=O)NC1=O (stereo in doubt)
SYSTEM_TESTED: Somatostatin receptor type 5 (Homo sapiens, UniProt P35346)
Sequence (P35346 whole entry): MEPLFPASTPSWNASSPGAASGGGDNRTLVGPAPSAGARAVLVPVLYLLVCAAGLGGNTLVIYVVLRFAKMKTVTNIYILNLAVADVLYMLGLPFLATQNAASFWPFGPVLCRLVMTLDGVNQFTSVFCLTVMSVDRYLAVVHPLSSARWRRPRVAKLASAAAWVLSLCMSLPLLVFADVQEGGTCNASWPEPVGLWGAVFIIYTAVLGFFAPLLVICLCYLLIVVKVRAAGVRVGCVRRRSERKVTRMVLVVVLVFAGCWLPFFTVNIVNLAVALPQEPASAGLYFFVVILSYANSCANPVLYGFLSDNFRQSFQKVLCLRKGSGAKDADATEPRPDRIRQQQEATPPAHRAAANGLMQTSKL
TEST_READOUT: Ki
READING: 972

COMPOUND: NCCCCn1c(SCCc2c[nH]c3ccccc23)nnc1-c1cc2ccccc2s1
SYSTEM_TESTED: Somatostatin receptor type 5 (Homo sapiens, UniProt P35346)
TEST_READOUT: Ki
READING: 58

Note: attention shifts to another entry.
Enquiry: Suppose we examine the compound "CCOc1cc(CN2CCC(NC(=O)c3cncc(C)c3)CC2)cc(OCC)c1-n1ccnc1" ; what Ki value has been reported?
Return: 11
